target entity: GABA A receptor α5β3γ2 (Homo sapiens, UniProt P18507+P31644)
Construct: expressed in transfected cells; host or cells: HEK293 cells, transiently transfected; membranes prepared
assay procedure: [3H]flumazenil competition binding, human GABA A α5β3γ2
condition: competition for [3H]flumazenil (0.5 nM) binding, HEK293 cells expressing human (transiently transfected) α5β3γ2; means of two determinations; read-out: Ki[nM] hα5

compound: CNCc1onc(-c2ccccc2)c1-c1nnc(-c2ccc(F)cc2OC)o1 [Example 88]
target entity: GABA A receptor α5β3γ2 (Homo sapiens, UniProt P18507+P31644)
Ki, nM: 339
--
compound: COc1cccc(-c2nnc(-c3c(-c4ccccc4)noc3C)o2)c1 [Example 3]
target entity: GABA A receptor α5β3γ2 (Homo sapiens, UniProt P18507+P31644)
Ki, nM: 391
--
compound: COc1cc(N2CCOCC2)ccc1-c1nnc(-c2c(-c3cccs3)noc2C)o1 [Example 110]
target entity: GABA A receptor α5β3γ2 (Homo sapiens, UniProt P18507+P31644)
Ki, nM: 19.5
--
compound: Cc1onc(-c2ccccc2)c1-c1nnc(-c2ccccc2OCc2ccccc2)o1 [Example 46]
target entity: GABA A receptor α5β3γ2 (Homo sapiens, UniProt P18507+P31644)
Ki, nM: 255
--
compound: COc1cc(NC=O)ccc1-c1nnc(-c2c(-c3ccccc3)noc2C)o1 [Example 134]
target entity: GABA A receptor α5β3γ2 (Homo sapiens, UniProt P18507+P31644)
Ki, nM: 5.8
--
compound: COc1cc(NS(=O)(=O)C(C)C)ccc1-c1nnc(-c2c(-c3ccccc3)noc2C)o1 [Example 63]
target entity: GABA A receptor α5β3γ2 (Homo sapiens, UniProt P18507+P31644)
Ki, nM: 42.8
--
compound: COc1cc(N2CCOCC2)ccc1-c1nnc(-c2c(-c3ccc(C(F)(F)F)cc3)noc2C)o1 [Example 103]
target entity: GABA A receptor α5β3γ2 (Homo sapiens, UniProt P18507+P31644)
Ki, nM: 47.6
--
compound: Cc1onc(-c2ccccc2)c1-c1nnc(-c2ccccc2OC(F)(F)F)o1 [Example 43]
target entity: GABA A receptor α5β3γ2 (Homo sapiens, UniProt P18507+P31644)
Ki, nM: 131
